Target: Histone deacetylase 2 (Homo sapiens, UniProt Q92769)
Sequence (Q92769 whole entry): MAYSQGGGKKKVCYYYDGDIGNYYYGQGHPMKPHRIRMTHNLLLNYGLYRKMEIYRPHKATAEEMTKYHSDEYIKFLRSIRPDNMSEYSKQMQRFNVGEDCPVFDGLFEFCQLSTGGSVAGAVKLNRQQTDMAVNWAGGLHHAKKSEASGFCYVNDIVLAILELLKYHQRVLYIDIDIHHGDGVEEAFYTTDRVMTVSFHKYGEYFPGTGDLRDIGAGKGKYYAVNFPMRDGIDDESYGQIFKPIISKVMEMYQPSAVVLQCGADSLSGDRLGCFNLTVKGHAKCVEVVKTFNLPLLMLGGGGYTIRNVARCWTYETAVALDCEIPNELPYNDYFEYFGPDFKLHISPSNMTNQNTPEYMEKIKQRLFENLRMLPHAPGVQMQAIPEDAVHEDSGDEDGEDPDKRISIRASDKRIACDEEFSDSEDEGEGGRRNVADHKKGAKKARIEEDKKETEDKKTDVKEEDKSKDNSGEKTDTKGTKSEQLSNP
Test: Inhibition of full-length recombinant human C-terminal GST tagged HDAC2 expressed in Sf9 insect cells using aminoluciferin peptide substrate at 100 nM preincubated for 3 hrs followed by substrate addition and measured after 30 mins by HDAC-Glo I/II chemiluminescence assay
Settings: time 3.5 hrs
reported endpoint: inhibition (%)

compound | tested system | reported endpoint | unit annotation | observed result
Nc1ccc(-c2cccs2)cc1NC(=O)c1cn(-c2ccc([N+](=O)[O-])cc2)nn1 | Histone deacetylase 2 (Homo sapiens, UniProt Q92769) | inhibition | % | 0
Cc1cccc(CCn2cc(C(=O)Nc3cc(-c4ccccc4)ccc3N)nn2)c1 | Histone deacetylase 2 (Homo sapiens, UniProt Q92769) | inhibition | % | 1
Cc1cccc(CCn2cc(CCC(=O)Nc3cc(-c4ccsc4)ccc3N)nn2)c1 | Histone deacetylase 2 (Homo sapiens, UniProt Q92769) | inhibition | % | 26
Nc1ccc(-c2ccsc2)cc1NC(=O)c1cn(CCN2CCc3ccccc3C2)nn1 | Histone deacetylase 2 (Homo sapiens, UniProt Q92769) | inhibition | % | 18
COc1ccc(Cn2cc(-c3cccc(C(=O)Nc4cc(-c5cccs5)ccc4N)c3)nn2)cc1 | Histone deacetylase 2 (Homo sapiens, UniProt Q92769) | inhibition | % | 0
Nc1ccc(-c2cccnc2)cc1NC(=O)CCc1cn(CCC23CC4CC(CC(C4)C2)C3)nn1 | Histone deacetylase 2 (Homo sapiens, UniProt Q92769) | inhibition | % | 5
COc1ccc(-n2cc(C(=O)Nc3cc(-c4ccccc4)ccc3N)nn2)cc1 | Histone deacetylase 2 (Homo sapiens, UniProt Q92769) | inhibition | % | 2
Nc1ccc(-c2ccsc2)cc1NC(=O)CCc1cn(CCCc2ccccc2)nn1 | Histone deacetylase 2 (Homo sapiens, UniProt Q92769) | inhibition | % | 19
Nc1ccc(-c2cccs2)cc1NC(=O)c1cn(C[S+]([O-])c2ccccc2)nn1 (stereo not drawn) | Histone deacetylase 2 (Homo sapiens, UniProt Q92769) | inhibition | % | 8
Nc1ccc(-c2ccc(F)cc2)cc1NC(=O)c1cn(CCCc2ccccc2)nn1 | Histone deacetylase 2 (Homo sapiens, UniProt Q92769) | inhibition | % | 21
Nc1ccc(-c2cccs2)cc1NC(=O)c1cccc(-c2cn(Cc3ccc4ccccc4c3)nn2)c1 | Histone deacetylase 2 (Homo sapiens, UniProt Q92769) | inhibition | % | 6
Nc1ccc(-c2ccccc2)cc1NC(=O)CCc1cn(CCCc2ccccc2)nn1 | Histone deacetylase 2 (Homo sapiens, UniProt Q92769) | inhibition | % | 9
Nc1ccc(-c2cccs2)cc1NC(=O)c1cccc(-c2cn(CCc3cccc(Cl)c3)nn2)c1 | Histone deacetylase 2 (Homo sapiens, UniProt Q92769) | inhibition | % | 0

---

Target: Histone deacetylase 2 (Homo sapiens, UniProt Q92769)
Assay: Inhibition of full-length recombinant human C-terminal GST tagged HDAC2 expressed in Sf9 insect cells using aminoluciferin peptide substrate at 100 nM preincubated for 3 hrs followed by substrate addition and measured after 30 mins by HDAC-Glo I/II chemiluminescence assay
Settings: time 3.5 hrs
Below, each entry is listed with its recorded inhibition.

chemical string | unit annotation | inhibition
Nc1ccc(-c2cccs2)cc1NC(=O)c1cn(-c2ccccc2-c2ccccc2)nn1 | % | 0
Nc1ccc(-c2cccs2)cc1NC(=O)c1cccc(-c2cn(CCc3ccccc3[N+](=O)[O-])nn2)c1 | % | 0
Cc1ccccc1CCn1cc(CCC(=O)Nc2cc(-c3ccc(F)cc3)ccc2N)nn1 | % | 7
Nc1ccc(-c2cccs2)cc1NC(=O)c1ccc(-c2cn(Cc3cc4ccccc4s3)nn2)cc1 | % | 0
Nc1ccc(-c2ccc(F)cc2)cc1NC(=O)c1cn(CCc2cccc(F)c2)nn1 | % | 0
CCc1ccc(Cn2cc(C(=O)Nc3cc(-c4ccc(F)cc4)ccc3N)nn2)cc1 | % | 0
Cc1csc(CCn2cc(C(=O)Nc3cc(-c4ccc(F)cc4)ccc3N)nn2)n1 | % | 10
Nc1ccc(-c2cccs2)cc1NC(=O)c1cn(Cc2ccc(OC(F)(F)F)cc2)nn1 | % | 14
Cc1ccccc1CCn1cc(C(=O)Nc2cc(-c3ccccc3)ccc2N)nn1 | % | 0
Nc1ccc(-c2ccc(F)cc2)cc1NC(=O)c1cn(-c2ccc(I)cc2)nn1 | % | 7
COc1ccc(Cn2cc(C(=O)Nc3cc(-c4ccccc4)ccc3N)nn2)cc1 | % | 6
Nc1ccc(-c2ccsc2)cc1NC(=O)c1cn(CCc2ccc(C(=O)O)cc2)nn1 | % | 18
Nc1ccc(-c2ccc(F)cc2)cc1NC(=O)CCc1cn(CS(=O)(=O)c2ccccc2)nn1 | % | 13
Cc1cccc(CCn2cc(-c3cccc(C(=O)Nc4cc(-c5cccs5)ccc4N)c3)nn2)c1 | % | 5
Nc1ccc(-c2cccs2)cc1NC(=O)c1ccc(-c2cn(CCC3CCCCC3)nn2)cc1 | % | 7
Nc1ccc(-c2ccsc2)cc1NC(=O)c1cn(CCCCCCCC(=O)O)nn1 | % | 10
Nc1ccc(-c2ccc(F)cc2)cc1NC(=O)c1cn(CCCCCc2ccccc2)nn1 | % | 1
Nc1ccc(-c2ccccc2)cc1NC(=O)c1cn(CCc2ccc(Cl)cc2)nn1 | % | 0
Nc1ccc(-c2ccc(F)cc2)cc1NC(=O)CCc1cn(CCCc2ccccc2)nn1 | % | 12
Nc1ccc(-c2cccs2)cc1NC(=O)c1cn(-c2ccc(O)cc2)nn1 | % | 0
Nc1ccc(-c2cccs2)cc1NC(=O)CCc1cn(CCCCC(=O)O)nn1 | % | 2
Nc1ccc(-c2cccs2)cc1NC(=O)c1ccc(-c2cn(CCc3ccccn3)nn2)cc1 | % | 81

---

Below, each entry is listed with its recorded inhibition.
Target: Histone deacetylase 2 (Homo sapiens, UniProt Q92769)
Experiment: Inhibition of full-length recombinant human C-terminal GST tagged HDAC2 expressed in Sf9 insect cells using aminoluciferin peptide substrate at 100 nM preincubated for 3 hrs followed by substrate addition and measured after 30 mins by HDAC-Glo I/II chemiluminescence assay
Details: time 3.5 hrs
reported endpoint: inhibition (%)

chemical string | tested system | observed result
Nc1ccc(-c2ccsc2)cc1NC(=O)CCc1cn(CCc2cccc(C(F)(F)F)c2)nn1 | Histone deacetylase 2 (Homo sapiens, UniProt Q92769) | 2
Nc1ccc(-c2cccs2)cc1NC(=O)c1ccc(-c2cn(-c3ccc(O)cc3)nn2)s1 | Histone deacetylase 2 (Homo sapiens, UniProt Q92769) | 20
Nc1ccc(-c2cccs2)cc1NC(=O)c1ccc(-c2cn(CCC3CCCC3)nn2)s1 | Histone deacetylase 2 (Homo sapiens, UniProt Q92769) | 0
Nc1ccc(-c2ccsc2)cc1NC(=O)c1cn(CCc2cccc(F)c2)nn1 | Histone deacetylase 2 (Homo sapiens, UniProt Q92769) | 0

---

Molecular target: Histone deacetylase 2 (Homo sapiens)
Assay: Inhibition of full-length recombinant human C-terminal GST tagged HDAC2 expressed in Sf9 insect cells using aminoluciferin peptide substrate at 100 nM preincubated for 3 hrs followed by substrate addition and measured after 30 mins by HDAC-Glo I/II chemiluminescence assay
Conditions: time 3.5 hrs
class 1 means recorded inhibition is 10% or above; class 0 means it is below 10%.

molecule | assigned label
Nc1ccc(-c2cccs2)cc1NC(=O)c1ccc(-c2cn(CCc3cccc4ccccc34)nn2)cc1 | class 0
Nc1ccc(-c2cccs2)cc1NC(=O)c1cn(Cc2ccc(Oc3ccccc3)cc2)nn1 | class 0
Nc1ccc(-c2ccc(F)cc2)cc1NC(=O)c1cn(CCC2CCCC2)nn1 | class 0
Nc1ccc(-c2ccsc2)cc1NC(=O)c1cn(CS(=O)(=O)c2ccccc2)nn1 | class 1
Nc1ccc(-c2cccnc2)cc1NC(=O)CCc1cn(Cc2cc3ccccc3s2)nn1 | class 0
Nc1ccc(-c2cccs2)cc1NC(=O)c1ccc(-c2cn(Cc3cccc(C(=O)O)c3)nn2)s1 | class 1
Nc1ccc(-c2cccs2)cc1NC(=O)c1cn(Cc2cc3ccccc3s2)nn1 | class 0
Cc1ccc(-n2cc(C(=O)Nc3cc(-c4ccccc4)ccc3N)nn2)cc1C | class 0
Nc1ccc(-c2ccccc2)cc1NC(=O)c1cn(-c2ccccc2-c2ccccc2)nn1 | class 0
Nc1ccc(-c2ccc(F)cc2)cc1NC(=O)c1cn(CCCCC(=O)O)nn1 | class 1
Nc1ccc(-c2ccsc2)cc1NC(=O)c1cn(CCc2ccccc2)nn1 | class 1
Nc1ccc(-c2ccsc2)cc1NC(=O)c1cn(CCCCCC(=O)O)nn1 | class 0
Nc1ccc(-c2ccc(F)cc2)cc1NC(=O)c1cn(Cc2ccc(-c3ccccc3)cc2)nn1 | class 0
Nc1ccc(-c2cccs2)cc1NC(=O)c1ccc(-c2cn(-c3ccc([N+](=O)[O-])cc3)nn2)s1 | class 0
Nc1ccc(-c2cccs2)cc1NC(=O)c1ccc(-c2cn(-c3ccc(I)cc3)nn2)s1 | class 0
Cc1ccc(-n2cc(-c3cccc(C(=O)Nc4cc(-c5cccs5)ccc4N)c3)nn2)cc1C | class 0
Nc1ccc(-c2ccc(F)cc2)cc1NC(=O)c1cn(CCc2ccccc2Cl)nn1 | class 0
COc1ccccc1CCn1cc(CCC(=O)Nc2cc(-c3ccsc3)ccc2N)nn1 | class 1
Nc1ccc(-c2cccs2)cc1NC(=O)c1cccc(-c2cn(CCc3ccc(F)cc3)nn2)c1 | class 0
Cc1ccc(CCn2cc(CCC(=O)Nc3cc(-c4ccccc4)ccc3N)nn2)cc1 | class 1
Nc1ccc(-c2ccccc2)cc1NC(=O)c1cn(Cc2cc3ccccc3s2)nn1 | class 0
Nc1ccc(-c2cccs2)cc1NC(=O)c1ccc(-c2cn(C[S+]([O-])c3ccccc3)nn2)cc1 (centres undefined) | class 1
Nc1ccc(-c2ccc(F)cc2)cc1NC(=O)CCc1cn(CCC2CCCC2)nn1 | class 0
Nc1ccc(-c2cccs2)cc1NC(=O)CCc1cn(CCc2ccc(F)cc2)nn1 | class 1
